Readings of viability at 10 µM for the listed compounds
Tested on: Colon cancer organoid
Experiment: Targeting of F14 CAF-induced therapy resistance in O23 CRC organoid-stroma co-culture. Cell viability is reported with SN-38.
Type: functional, Homo sapiens
Settings: Homo sapiens, Concentration 10 uM; read-out: Cell Viability
Hey, just the number and the unit after it is fine.

Ask: Quick one: give measured viability at 10 µM for `CC(C)C(=O)Nc1n[nH]c2cc(-c3cccc(NS(=O)(=O)C4CC4)c3)ccc12`
Reply: 62.1%

Ask: Output measured viability at 10 µM for this item: `Clc1cc2c(NC3CCCC3)nnc(-c3ccncc3)c2cc1Cl`
Reply: 114%

Ask: # return recorded viability at 10 µM for entry N#CN1CC[C@H](C(=O)Nc2nc3c(s2)CN(C(=O)CN=[N+]=[N-])CC3)C1 [8RK64]
Reply: 40.9%

Ask: Determine its reported viability at 10 µM: `Cc1cn(-c2cc(NC(=O)c3ccc4c(c3)CN(c3cncnc3)C[C@@H]4C)cc(C(F)(F)F)c2)cn1`
Reply: 57.5%
